- System: Plasmodium berghei
- assay: Luciferase/luciferin-expressing antifolate-resistant parasites were used to infect a culture of HepG2 cells that were pre-incubated with compounds. Infected hepatocytes emit light due to the luciferase reaction. Assay results are presented as the percent inhibition of light emission compared to control. […]
- Type: functional
- conditionDetails: sporozoite, HEPG2TOX_HILL_SLOPE 3.2, HEPG2TOX_R_SQUARED 0.033, read-out: LUCIFERASE INFECTION ASSAY - IC50
measuredQuantity: IC50

| structureAsSmiles | assayValue |
| --- | --- |
| CNc1nc2cnc(Nc3ccc(C(F)(F)F)cc3)cc2n1Cc1ccccc1 | > 10 µM |
